- measuredOn: human polyclonal IgG (human)
- testDetails: SPR (Biacore), His-tagged fusion protein captured on Ni-NTA chip, human IgG injected
Overview of recorded koff for various binders
Put down the number, then write its unit next to it.

input: // fetch koff given entry fusion protein PG2 (designed binder) AYRLILNGRTLRGETTTEAVDAATAERVFRQYANDNGVDGEWTYDDATRTFTVTERPEVIDASELTPAVTPGAYRLILNGRTLRGETTTEAVDAATAERVFRQYANDNGVDGEWTYDDATRTFTVTERPEVIDASELTPAVTGGGGCADDDDDDHHHHHH
output: 0.0001 s⁻¹
